System: EA.hy 926
Experiment: Effect on oxidative stress in human EAhy926 cells assessed as intracellular ROS level at 1 uM after overnight incubation by DCFH-DA staining based fluorescence assay relative to control
Assay type: functional
This section presents molecules with their documented Activity values.
measurement.name: Activity

molecule	experimental.target	result
COc1cc(/C=C/C(=O)/C=C(/C=C/c2ccc(O)c(OC)c2)NCC(C)C)ccc1O	EA.hy 926	83%
COc1cc(/C=C/C(=O)/C=C(/C=C/c2ccc(OC(C)=O)c(OC)c2)NC2CCCCC2)ccc1OC(C)=O	EA.hy 926	101%
COc1cc(/C=C/C(=O)CC(=O)/C=C/c2ccc(O)c(OC)c2)ccc1O	EA.hy 926	91%
CC(C)CNC(=C\C(=O)/C=C/c1ccc(O)cc1)/C=C/c1ccc(O)cc1	EA.hy 926	100%
O=C(/C=C/c1ccc(O)cc1)CC(=O)/C=C/c1ccc(O)cc1	EA.hy 926	92%
CCC(C)NC(=C\C(=O)/C=C/c1ccc(O)c(OC)c1)/C=C/c1ccc(O)c(OC)c1 (centres undefined)	EA.hy 926	85%
CCC(C)NC(=C\C(=O)/C=C/c1ccc(O)cc1)/C=C/c1ccc(O)cc1 (centres undefined)	EA.hy 926	99%
CCCNC(=C\C(=O)/C=C/c1ccc(O)c(OC)c1)/C=C/c1ccc(O)c(OC)c1	EA.hy 926	78%
CCCCNC(=C\C(=O)/C=C/c1ccc(O)c(OC)c1)/C=C/c1ccc(O)c(OC)c1	EA.hy 926	110%

* * *

Experiment: Growth inhibition of human HT-29 cells assessed as mitochondrial activity measured after 72 hrs by MTT assay
Type: functional, cell-based
Details: HT-29, 72 h

compound	IC50
CCC(C)NC(=C\C(=O)/C=C/c1ccc(O)c(OC)c1)/C=C/c1ccc(O)c(OC)c1 (centres undefined)	> 25 µM
C=CCNC(=C\C(=O)/C=C/c1ccc(O)c(OC)c1)/C=C/c1ccc(O)c(OC)c1	> 25 µM
COc1cc(/C=C/C(=O)CC(=O)/C=C/c2ccc(O)c(OC)c2)ccc1O	> 25 µM
CCC(C)NC(=C\C(=O)/C=C/c1ccc(OC(C)=O)c(OC)c1)/C=C/c1ccc(OC(C)=O)c(OC)c1 (centres undefined)	> 25 µM
O=C(/C=C/c1ccc(O)cc1)CC(=O)/C=C/c1ccc(O)cc1	> 25 µM
COc1cc(/C=C/C(=O)/C=C(/C=C/c2ccc(OC(C)=O)c(OC)c2)NC2CCCCC2)ccc1OC(C)=O	> 25 µM
COc1cc(/C=C/C(=O)/C=C(/C=C/c2ccc(O)c(OC)c2)NC2CCCCC2)ccc1O	> 25 µM
COc1cc(/C=C/C(=O)/C=C(/C=C/c2ccc(OC(C)=O)c(OC)c2)NCC(C)C)ccc1OC(C)=O	> 25 µM
COc1cc(/C=C/C(=O)CC(=O)/C=C/c2ccc(OC(C)=O)c(OC)c2)ccc1OC(C)=O	> 25 µM
